test: Selectivity ratio of IC50 for ovine COX-1 to IC50 for recombinant human COX-2
Value kind: Ratio IC50

Example entries and their recorded answers appear below.
Sample smiles: CS(=O)(=O)c1ccc(Cc2nnnn2-c2ccc(CO)cc2)cc1
Result: > 5.2

Sample smiles: CS(=O)(=O)c1ccc(Cc2nnnn2-c2ccc(CCO)cc2)cc1
Result: > 67

Sample smiles: CS(=O)(=O)c1ccc(-c2nnnn2-c2ccc(CCO)cc2)cc1
Result: > 7.1

Sample smiles: CS(=O)(=O)c1ccc(Cc2nnnn2-c2ccc(O)cc2)cc1
Result: > 0.42

Sample smiles: NS(=O)(=O)c1ccc(-c2nnnn2-c2ccc(O)cc2)cc1
Result: > 0.2

Moving on to another compound below.
Request the reported Ratio IC50 associated with NS(=O)(=O)c1ccc(-c2nnnn2-c2ccc(CCO)cc2)cc1 > 2

Values were extracted from ChEMBL document CHEMBL4431383.
